- test system: PD-1/PD-L1 (Homo sapiens)
- Construct: made in house; host or cells: HEK293T
- Sequence (Q9NZQ7 with tags, fused parts or gaps): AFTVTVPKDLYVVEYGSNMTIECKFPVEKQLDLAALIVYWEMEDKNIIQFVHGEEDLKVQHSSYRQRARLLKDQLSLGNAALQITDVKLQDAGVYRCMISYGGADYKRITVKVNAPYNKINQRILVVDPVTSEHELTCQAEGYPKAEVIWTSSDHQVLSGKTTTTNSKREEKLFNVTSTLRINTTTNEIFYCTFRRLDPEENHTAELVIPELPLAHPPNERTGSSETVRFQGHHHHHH
- assay text: PD-1/PD-L1 Homogenous Time-Resolved Fluorescence (HTRF) binding assay
- condition context: PD-L1-His 10 nM, PD-1-Ig 20 nM; value given as range class; read-out: Range or IC50
assay readout: IC50

Some compounds with known IC50 results, for comparison:
[
  {
    "compound": "Cc1c(COc2cc(OCc3cncc(S(C)(=O)=O)c3)c(CNC(C)(CO)C(=O)O)cc2Cl)cccc1-c1cccc(OCCCN2CCC(CO)(C(=O)O)C2)c1Cl (single isomer, unassigned) [Example 1064]",
    "observed measurement": "0.21 to 10 nM"
  },
  {
    "compound": "Cc1c(COc2cc(OCc3cncc(C#N)c3)c(CN3CCCC[C@H]3C(=O)O)cc2Cl)cccc1-c1cccc(O[C@H](C)CCN2CC[C@@H](O)C2)c1C",
    "observed measurement": "0.21 to 10 nM"
  }
]

Next up:
Request: What value of measured IC50 is listed for Cc1c(COc2cc(OCc3cncc(C#N)c3)c(CN[C@@H](CC(C)C)C(=O)O)cc2Cl)cccc1-c1cccc(OCCCN2CC[C@@H](O)C2)c1C ?
Result: 0.21 to 10 nM

---

- test system: PD-1/PD-L1 (Homo sapiens)
- Construct: made in house; host or cells: HEK293T
- assay text: PD-1/PD-L1 Homogenous Time-Resolved Fluorescence (HTRF) binding assay
- condition context: PD-L1-His 10 nM, PD-1-Ig 20 nM; value given as range class; read-out: Range or IC50
assay readout: IC50

[
  {
    "compound": "CCOC(=O)[C@H](CO)NCc1cc(Cl)c(OCc2cccc(-c3cccc(OCCCN4CC[C@@H](O)C4)c3C)c2C)cc1OCc1cncc(C#N)c1",
    "observed measurement": "0.21 to 10 nM"
  },
  {
    "compound": "Cc1c(COc2cc(OCc3cncc(C#N)c3)c(CN(CCO)CCCO)cc2Cl)cccc1-c1cccc(CN(C)CCN2CCS(=O)(=O)CC2)c1C",
    "observed measurement": "10 to 100 nM"
  },
  {
    "compound": "Cc1c(COc2cc(OCc3cncc(C#N)c3)c(CN[C@](C)(CO)C(=O)O)cc2Cl)cccc1-c1cccc(OCCCNC[C@H](O)CO)c1Cl",
    "observed measurement": "0.21 to 10 nM"
  },
  {
    "compound": "Cc1c(COc2cc(OCc3cncc(C#N)c3)c(CN3CCCC[C@H]3C(=O)O)cc2Cl)cccc1-c1cccc(OCCCN2CCCCC2CO)c1C (stereo partly drawn)",
    "observed measurement": "0.21 to 10 nM"
  },
  {
    "compound": "CNC(=O)c1cccc(-c2cccc(COc3cc(OCc4cncc(C#N)c4)c(CN4CCC[C@H]4C(=O)O)cc3Cl)c2C)c1C",
    "observed measurement": "10 to 100 nM"
  },
  {
    "compound": "CC(=O)N[C@H]1CCN(CCCOc2cccc(-c3cccc(COc4cc(OCc5cncc(C#N)c5)c(CN[C@](C)(CO)C(=O)O)cc4Cl)c3Cl)c2Cl)C1",
    "observed measurement": "0.21 to 10 nM"
  },
  {
    "compound": "Cc1c(COc2cc(OCc3cncc(C#N)c3)c(CN[C@H](CO)C(=O)O)cc2Cl)cccc1-c1cccc(OCCCN2CCC(O)(C(=O)O)CC2)c1C",
    "observed measurement": "0.21 to 10 nM"
  },
  {
    "compound": "COc1cc(CCc2cccc(-c3cccc(OCCCN4CC[C@@H](O)C4)c3C)c2C)c(Cl)cc1CN1CCCC[C@H]1C(=O)O",
    "observed measurement": "0.21 to 10 nM"
  }
]

Request: Query for PD-1/PD-L1 (Homo sapiens): what IC50 does the record show for N=C(c1cncc(COc2cc(OCc3cccc(-c4cccc(OCCCN5CC[C@@H](O)C5)c4Cl)c3Cl)c(Cl)cc2CNC[C@H](O)CO)c1)N1CC[C@@H](O)C1 ?
Result: 0.21 to 10 nM

Request: Requested read-out IC50, target or system PD-1/PD-L1 (Homo sapiens), entry Cc1c(COc2cc(OCc3cncc(C#N)c3)c(CN3CCCC[C@H]3C(=O)O)cc2Cl)cccc1-c1cccc(OCCCN2C[C@H]3CC[C@@H](C2)O3)c1C
Result: 0.21 to 10 nM

Request: Record Cc1ccc(OCCCN2CC[C@@H](O)C2)c(C)c1-c1cccc(COc2cc(OCc3cncc(C#N)c3)c(CN3CCCC[C@H]3C(=O)O)cc2Cl)c1C : what is its IC50 with PD-1/PD-L1 (Homo sapiens)?
Result: 0.21 to 10 nM

Request: // fetch PD-1/PD-L1 (Homo sapiens) IC50 for N#Cc1cncc(COc2cc(OCc3cccc(-c4cccc(OCCCN5CC[C@@H](O)C5)c4Cl)c3Cl)c(Cl)cc2CNC[C@H](O)CO)c1
Result: 0.21 to 10 nM

Request: Form entry - test system: PD-1/PD-L1 (Homo sapiens); read-out: IC50; compound: Cc1c(CCCCN2CC[C@@H](O)C2)cccc1-c1cccc(COc2cc(OCc3cncc(C#N)c3)c(CN3C[C@@H](O)C[C@H]3C(=O)O)cc2Cl)c1C
Result: 0.21 to 10 nM

Request: Requested read-out IC50, target or system PD-1/PD-L1 (Homo sapiens), entry Cc1c(COc2cc(OCc3cncc(C#N)c3)c(CNC(C)(CO)CO)cc2Cl)cccc1-c1cccc(CNCCN2CCOCC2)c1Cl
Result: 0.21 to 10 nM

Request: Give IC50 (PD-1/PD-L1 (Homo sapiens)) of the following compound: Cc1c(COc2cc(OCc3cncc(C#N)c3)c(CN[C@](C)(CO)C(=O)O)cc2Cl)cccc1-c1cccc(OCCCN2C[C@H](O)C[C@H]2C(N)=O)c1Cl
Result: 0.21 to 10 nM

Request: State its IC50 on PD-1/PD-L1 (Homo sapiens): Cc1c(COc2cc(OCc3cncc(C(=N)N4CCCC(CO)C4)c3)c(CNC(C)(CO)CO)cc2Cl)cccc1-c1cccc(OCCCN2CCCC(CO)C2)c1Cl (stereo not drawn)
Result: 0.21 to 10 nM

Request: Lab note: need IC50 for CCC(CO)(CO)NCCCOc1cccc(-c2cccc(COc3cc(OCc4cncc(C#N)c4)c(CNC(CC)(CO)CO)cc3Cl)c2C)c1C on PD-1/PD-L1 (Homo sapiens), anyone have it?
Result: 0.21 to 10 nM

Request: Record Cc1c(COc2cc(OCc3cncc(C#N)c3)c(CN3CCCC[C@H]3C(=O)O)cc2Cl)cccc1-c1cccc(OCCCN2CCOCC2)c1C : what is its IC50 with PD-1/PD-L1 (Homo sapiens)?
Result: 0.21 to 10 nM

Request: Please provide the recorded IC50 for Cc1c(COc2cc(OCc3cncc(S(C)(=O)=O)c3)c(CN[C@H](CO)C(=O)O)cc2Cl)cccc1-c1cccc(OCCCN2CC[C@@H](O)C2)c1 , tested on PD-1/PD-L1 (Homo sapiens).
Result: 0.21 to 10 nM
